Each entry below carries its reported bioavailability.
- testDescription: Rodent pharmacokinetics (rat PK)
- Assay type: in vivo
- details: po, dosed intravenously or orally by gavage, plasma, read-out: F % (bioavailability)

Worked cases, bioavailability given:
>>> experimentalvalue("Cn1c(=O)n(C2CCC(=O)NC2=O)c2cccc([C@@H]3CCN(C[C@H]4CC[C@H](c5cn6cc(NC(=O)c7cccc(C(F)(F)F)c7)ccc6n5)CC4)C[C@H]3F)c21 (stereo partly drawn)")
"≤ 5%"
>>> experimentalvalue("COc1cn2nc([C@H]3CC[C@H](CN4CC[C@@H](c5cccc6c5n(C)c(=O)n6C5CCC(=O)NC5=O)[C@H](F)C4)CC3)cc2cc1NC(=O)c1cncc(C(F)(F)F)n1 (stereo partly drawn)")
"≤ 5%"

IN: Give its bioavailability value. Item: Cn1c(=O)n(C2CCC(=O)NC2=O)c2cccc([C@@H]3CCN(C[C@H]4CC[C@H](n5cc6cc(NC(=O)c7cncc(C(F)F)n7)ncc6n5)CC4)C[C@H]3F)c21 (stereo partly drawn)
OUT: ≤ 5%
